- Tested on: IGROV1 ovarian
- ASSAY COMMENT: NCI tumour cell line growth inhibition, 48 h
QUANTITY MEASURED: TGI

The following compounds have reported results that may help.
| COMPOUND | TGI |
| --- | --- |
| CC(=O)OC(C#N)CC(C)(C)/[N+]([O-])=[N+](\[O-])C(C)(C)CC(C#N)OC(C)=O (stereo unspecified) | 24 µM |
| N#CC(C#N)=Cc1ccc(Oc2ccccc2)cc1 | > 69 µM |
| COc1cc2c(cc1OC)C1(c3ccccc3)ON=C(c3ccccc3)N1CS2 (stereo unspecified) | > 100 µM |
| Oc1c2c(c3c4c1N=CC=4CCN=3)C1(C=C(Br)C(O)C(Br)=C1)CCN2 (stereo unspecified) | 2.86 µM |

Then this compound:
Can you share its TGI? I mean this compound: `O=C(Nc1ccc(Cl)cc1F)c1cc(Cl)ccc1O`
> 100 µM

###

- Tested on: SN12C renal
- ASSAY COMMENT: NCI tumour cell line growth inhibition, 48 h
QUANTITY MEASURED: TGI

The following molecules have reported results that may help.
| MOLECULE | ASSAYED SYSTEM | TGI |
| --- | --- | --- |
| CCOC1=C2C(C)(CCC3[C@@]4(C)C=CC(=O)C(C)(C)C4CC(O)[C@@]23C)C(c2ccoc2)C1=O (stereo not given in full) | SN12C renal | 58 µM |
| CC1=C(c2ccc(C)cc2)NC(=S)C(C)C(c2ccc(C)cc2)=N1 (stereo not given) | SN12C renal | > 100 µM |
| Cc1ccc(C2SC(N)=Nc3c2c(C)nn3C(=O)c2ccc(Cl)cc2)cc1 (stereo not given) | SN12C renal | > 10 µM |
| CCCCCCCCCCCCCCC[C@@H](O)C[N+](C)(C)CCO | SN12C renal | 50.8 µM |
| O=C(O)c1nc2cc(C(F)(F)F)ccc2[nH]c1=O | SN12C renal | > 100 µM |

Can you share its TGI? I mean this molecule: CCCCC1=CC1(C#N)[N+](=O)[O-] (stereo not given)
> 100 µM

Can you share its TGI? I mean this molecule: `CCc1cccc(CC)c1NC(=O)c1ccn2c1CCc1cnc(Nc3ccc(N4CCN(C)CC4)cc3OC)nc1-2`
13.9 µM

Can you share its TGI? I mean this molecule: Cc1ccc(S(=O)(=O)NC(=O)C#CCOC2CCCCO2)cc1 (stereo not given)
> 100 µM

Can you share its TGI? I mean this molecule: `COc1ccc(CCN2COc3ccc4ccc(=O)oc4c3C2)cc1OC`
> 100 µM

Can you share its TGI? I mean this molecule: CC(C)N(C(=O)C12C3C4C5C3C1(C#N)C5C42)C(C)C (stereo not given)
> 100 µM

###

GI50 for assorted molecules
- Test system: M14 melanoma
- ASSAY COMMENT: NCI tumour cell line growth inhibition, 48 h

| MOLECULE | GI50 |
| --- | --- |
| CC(=O)OC1CC(C)c2c(Cl)ncnc21 (stereo unspecified) | > 100000 nM |
| Cc1cccc2c1NC(=O)C2(c1ccc(O)cc1)c1ccc(O)cc1 | 15500 nM |
| CCC[CH2][Ge]([CH2]CCC)([CH2]CCC)[O]C(=O)C(OC(C)=O)c1ccccc1 (stereo unspecified) | 1050 nM |
| CNC(=O)c1c(NC(=O)c2ccc(C(C)C)cc2)sc2c1CCC(=O)C2 | 454 nM |

Can you share its GI50? I mean this molecule: `Cc1cn2c(/C=N/N=C(N)N)c(-c3cc(Cl)sc3Cl)nc2s1`
874 nM

Can you share its GI50? I mean this molecule: `CCCCC/C=C\C/C=C/CCCCCCCCNC(=O)Nc1ccc([N+](=O)[O-])cc1`
6900 nM
